Data provenance is patent US8952024B2.

# Test system: ragweed (common ragweed, Ambrosia elatior)
# Assay Procedure: Test B pre-/postemergence plant response
# Assay type: in vivo
# Run Parameters: Postemergence, 125 g ai/ha; visual rating after 13 to 15 days, scale 0 (no effect) to 100 (complete control)

Compound	Plant response rating, Ragweed
O=C1CCCC(O)=C1C(=O)c1cnc(-c2ccccc2)n(-c2ccccc2Br)c1=O [Compound 37]	95
CCCCn1c(CCC)ncc(C(=O)C2=C(O)CCCC2=O)c1=O [Compound 75]	90
Cc1ccc(-n2c(-c3cccc(Cl)c3)ncc(C(=O)C3=C(O)CCCC3=O)c2=O)cc1 [Compound 39]	95
Cc1ccc(Cl)cc1-n1c(-c2ccccc2)ncc(C(=O)C2=C(O)CCCC2=O)c1=O [Compound 52]	80
O=C1CCCC(O)=C1C(=O)c1cnc(-c2ccccc2)n(-c2ccc(F)cc2)c1=O [Compound 24]	90

###

# Tested on: velvetleaf (Abutilon theophrasti)
# Assay Procedure: Test A pre-/postemergence plant response
# Format: in vivo
# Run Parameters: Postemergence, 500 g ai/ha; visual injury, 0 to 100 scale (0 no effect, 100 complete control), approx. ten days

Compound	Measurement Target	Velvetleaf plant response rating
CCCn1c(-c2cccc(C)c2)ncc(C(=O)C2=C(O)CCCC2=O)c1=O	velvetleaf (Abutilon theophrasti)	100
COc1ccc(-n2c(-c3cccc(C)c3)ncc(C(=O)C3=C(O)CCCC3=O)c2=O)cc1	velvetleaf (Abutilon theophrasti)	70
CCCn1c(-c2ccco2)ncc(C(=O)C2=C(O)C3CCC(C3)C2=O)c1=O (centres unmarked)	velvetleaf (Abutilon theophrasti)	100
Cc1ccc(-n2c(-c3cc(F)cc(F)c3)ncc(C(=O)C3=C(O)CCCC3=O)c2=O)cc1	velvetleaf (Abutilon theophrasti)	100
Cc1cccc(-c2ncc(C(=O)C3=C(O)CCCC3=O)c(=O)n2-c2ccc(F)cc2C)c1	velvetleaf (Abutilon theophrasti)	100
O=C1CCCC(O)=C1C(=O)c1cnc(-c2cc(F)cc(F)c2)n(CC2CCCO2)c1=O (centres unmarked)	velvetleaf (Abutilon theophrasti)	100
Cc1cccc(-c2ncc(C(=O)C3=C(O)CCCC3=O)c(=O)n2-c2cc(F)ccc2C)c1	velvetleaf (Abutilon theophrasti)	100
COCCCn1c(-c2cc(F)cc(F)c2)ncc(C(=O)C2=C(O)C3CCC(C3)C2=O)c1=O (centres unmarked)	velvetleaf (Abutilon theophrasti)	100

###

# Test system: goosegrass (Eleusine indica)
# Assay Procedure: Test B pre-/postemergence plant response
# Type: in vivo
# Run Parameters: 62 g ai/ha, postemergence; 0 is no effect, 100 is complete control; 13 to 15 days
Assay Readout: Goosegrass plant response rating (0 to 100 scale)

Smiles Structure	Test Result
COCCCn1c(-c2cccc(F)c2)ncc(C(=O)C2=C(O)CCCC2=O)c1=O	70
O=C1CCCC(O)=C1C(=O)c1cnc(-c2ccccc2)n(C2CCCCCC2)c1=O	85
O=C1CCCC(O)=C1C(=O)c1cnc(C2CC2)n(-c2ccccc2)c1=O	80
O=C1CCCC(O)=C1C(=O)c1cnc(C2CCCC2)n(-c2ccccc2)c1=O	70

###

# Tested on: downy bromegrass (Bromus tectorum)
# Assay Procedure: Test B pre-/postemergence plant response
# Format: in vivo
# Run Parameters: Preemergence, 125 g ai/ha; 0 to 100 scale

Smiles Structure	Bromegrass, Downy plant response rating
O=C1CCCC(O)=C1C(=O)c1cnc(-c2ccccc2)n(-c2ccc(F)cc2)c1=O	0
O=C1CCCC(O)=C1C(=O)c1cnc(-c2cccc(Cl)c2)n(-c2ccccc2)c1=O	10
Cc1cccc(-n2c(-c3cccc(Cl)c3)ncc(C(=O)C3=C(O)CCCC3=O)c2=O)c1	0
Cc1cc(F)ccc1-n1c(-c2ccccc2)ncc(C(=O)C2=C(O)CCCC2=O)c1=O	0
Cc1ccc(C)c(-n2c(-c3ccccc3)ncc(C(=O)C3=C(O)CCCC3=O)c2=O)c1	0
